B1: POU domain, class 4, transcription factor 1, residues 266 to 347; numbered along this chain, Q01851 (parent)
chain: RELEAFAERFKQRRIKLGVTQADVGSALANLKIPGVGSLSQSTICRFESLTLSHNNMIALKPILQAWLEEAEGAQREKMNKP

# Variants of: B1
# ASSAY EXPLANATION: abundance fitness (aPCA) (normalised: wild type 0, dead -1); higher = more abundant; growth selection in yeast, the domain comes from the species named
# CONDITION DESCRIPTION: Homo sapiens
Known abundance fitness of a selection of variants
OBSERVABLE: abundance fitness

> print(dat)
     var  number
 1  G35R  -0.056
 2   R1Y  -0.076
 3  R46S  -0.009
 4  Q41E   0.051
 5  M57N   -0.19
 6  H54W  -0.014
 7   R1F   0.028
 8  S26Q   0.086
 9  T20C   0.008
10  I63N   -0.17
11  S40P   -0.15

meta.source: the Human Domainome abundance scans (Beltran et al. 2025)
